Catalogue of molecules with associated pEC50
MEASURED_TARGET: GLP-1R (Homo sapiens, UniProt P43220)
Sequence (P43220 24-463): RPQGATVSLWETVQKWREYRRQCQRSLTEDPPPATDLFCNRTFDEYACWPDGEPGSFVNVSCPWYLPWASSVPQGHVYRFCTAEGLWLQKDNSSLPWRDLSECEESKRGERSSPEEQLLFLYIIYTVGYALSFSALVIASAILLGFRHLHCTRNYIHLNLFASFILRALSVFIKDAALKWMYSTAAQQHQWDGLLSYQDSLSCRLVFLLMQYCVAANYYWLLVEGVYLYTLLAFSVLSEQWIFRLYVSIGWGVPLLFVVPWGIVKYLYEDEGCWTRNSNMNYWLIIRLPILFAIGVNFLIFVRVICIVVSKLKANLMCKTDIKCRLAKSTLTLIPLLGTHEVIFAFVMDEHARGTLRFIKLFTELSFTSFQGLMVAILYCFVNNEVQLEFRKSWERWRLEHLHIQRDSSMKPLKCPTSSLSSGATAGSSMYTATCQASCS
TEST_NAME: GLP-1R activation: cAMP increase in CHO cells stably expressing GLP-1R
Assay type: cell-based
APPLIED_CONDITIONS: cAMP increase, CHO cells stably expressing GLP-1R, 10 point dose response, 30 minutes incubation; read-out: EC50
pEC50: −log10 of the molar value.
OBSERVATION_TYPE: pEC50

{"columns": ["MOLECULE", "OBSERVATION_TYPE", "VALUE_MEASURED"],
 "data": [
  ["Cc1conc1Cn1c(Cc2ccc(-c3cccc(OCc4ccc(C#N)cc4F)n3)cc2F)nc2ccc(C(=O)O)cc21", "pEC50", 8.26],
  ["COCCNC(=O)C(Cn1c(Cc2ccc(-c3cccc(OCc4ccc(C#N)cc4F)n3)cc2F)nc2ccc(C(=O)O)cc21)OC (single isomer, unassigned) [Example 335]", "pEC50", 6.86],
  ["N#Cc1ccc(COc2cccc(-c3cc(F)c(Cc4nc5ccc(C(=O)O)cc5n4C[C@@H]4CCCO4)cc3F)n2)c(F)c1", "pEC50", 8.95],
  ["COCCn1c(Cc2cc(F)c(-c3ccc(OC)c(OCc4ccc(C#N)cc4F)n3)cc2F)nc2ccc(C(=O)O)cc21", "pEC50", 7.55],
  ["N#Cc1ccc(COc2cccc(-c3cc(F)c(Cc4nc5ccc(C(=O)O)cc5n4C[C@@H]4CCO4)cc3F)n2)c(OC(F)F)n1", "pEC50", 8.64],
  ["O=C(O)c1ccc2nc(Cc3ccc(-c4cccc(OCc5ccc(Cl)cc5F)n4)c(F)c3)n(CC3(CF)CC3)c2n1", "pEC50", 9.57],
  ["COCCn1c(Cc2ccc(-c3cccc(OCc4ccc(C#N)cc4F)n3)cc2-c2ccccc2)nc2ccc(C(=O)O)cc21", "pEC50", 6.43],
  ["COCCn1c(Cc2cc(F)c(-c3cccc(OCc4cccc(-c5cnn(C)c5)c4)n3)cc2F)nc2ccc(C(=O)O)cc21", "pEC50", 6.95],
  ["COCCn1c(Cc2ccc(-c3cccc(OCc4cccc(COC)c4)n3)cc2F)nc2ccc(C(=O)O)cc21", "pEC50", 6.99],
  ["COCCNC(=O)C(Cn1c(Cc2ccc(-c3cccc(OCc4ccc(C#N)cc4F)n3)cc2F)nc2ccc(C(=O)O)cc21)OC (single isomer, unassigned) [Example 328]", "pEC50", 7.58],
  ["COCCn1c(Cc2ccc(-c3cccc(OCc4ccc(Cl)cc4OCC(F)F)n3)cc2F)nc2ccc(C(=O)O)cc21", "pEC50", 6.80],
  ["COCCn1c(Cc2ccc(-c3ccc(Cl)c(OCc4ccc(C#N)cc4F)n3)cc2F)nc2ccc(C(=O)O)cc21", "pEC50", 7.51],
  ["N#Cc1ccc(COc2cccc(-c3cc(F)c(Cc4nc5ccc(C(=O)O)nc5n4CC4(CF)CC4)c(F)c3)n2)c(F)c1", "pEC50", 8.61]
]}
